experimental-details: liver-stage malaria parasite growth inhibition, primary screen, cell-based, HepG2, luciferase luminescence, HepG2 viability (AID 624349);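 note: 100% = mean of DMSO negative control wells on the same plate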
cond: P. berghei liver stage in HepG2, luciferase luminescence, concentration not given here; measured here: HepG2 viability without parasites
Where a SMILES comes first, the peptide text is derived from it. [ ]: non-standard residue; d: D form. The star is where a group is joined. Sta = CC(C)C[C@H](N)[C@@H](O)CC(=O)O; Isovaleryl = CC(C)CC(=O)*

compound	viability (%)
COCC(=O)Nc1c(I)c(C(=O)NCC(O)CO)c(I)c(C(=O)N(C)CC(O)CO)c1I (configuration not stated)	104
CC(C)(C)C(=O)OCOC(=O)[C@@H]1N2C(=O)[C@@H](NC(=O)[C@H](N)c3ccccc3)[C@H]2SC1(C)C	75
O=C(NCC(O)CO)c1c(I)c(C(=O)NCC(O)CO)c(I)c(N(CCO)C(=O)CO)c1I (configuration not stated)	103
CN=C(N)NCCC[C@H](N)C(=O)O	72.8
COc1ccc2cc1Oc1ccc(cc1)C[C@H]1c3cc(c(OC)cc3CCN1C)Oc1c(OC)c(OC)cc3c1[C@H](C2)N(C)CC3	98.6
C#C[C@]1(OC(C)=O)CC[C@H]2[C@@H]3CCC4=CC(=O)CC[C@@H]4[C@H]3CC[C@@]21C	96.7
CC(C)CC(=O)N[C@H](C(=O)N[C@H](C(=O)N[C@@H](CC(C)C)[C@@H](O)CC(=O)N[C@@H](C)C(=O)N[C@@H](CC(C)C)[C@@H](O)CC(=O)O)C(C)C)C(C)C (Isovaleryl-VV[Sta]A[Sta]-OH)	102
CN(Cc1ccc(C(C)(C)C)cc1)Cc1cccc2ccccc12	140
C[C@]12CC[C@@H]3c4ccc(O)cc4C[C@@H](CCCCCCCCCS(=O)CCCC(F)(F)C(F)(F)F)[C@H]3[C@@H]1CC[C@@H]2O (some centres not stated)	121
CCOC(=O)[C@H](CCc1ccccc1)N[C@H](C)C(=O)N1C2CCCCC2C[C@H]1C(=O)O (some centres not stated)	94.3
NCCCCN=C(N)N	87.2
COc1cc(OC)c2ccc(=O)oc2c1	69.7
COC(=O)C1=C(C)NC(C)=C(C(=O)OCCCN2CCC(c3ccccc3)(c3ccccc3)CC2)C1c1cccc([N+](=O)[O-])c1 (configuration not stated)	90.5
C=C1C[C@]23C[C@@]1(O)CC[C@H]2[C@@]12C=C[C@H](O)[C@@](C)(C(=O)O1)[C@H]2[C@@H]3C(=O)O	80.4
O=C1OC(CN2CCOCC2)CN1/N=C/c1ccc([N+](=O)[O-])o1 (configuration not stated)	89.8
CCN(CC)C(=O)/C(C#N)=C/c1cc(O)c(O)c([N+](=O)[O-])c1	102
C/C(=C(\CCOP(=O)(O)O)SC(=O)c1ccccc1)N(C=O)Cc1cnc(C)nc1N	102
CC(CNC1CCCCC1)OC(=O)c1ccccc1 (configuration not stated)	92
CN(C)CCN(Cc1ccc(Cl)cc1)c1ccccn1	98.9
CC=C1[C@H]2C=C(C)C[C@]1(N)c1ccc(=O)[nH]c1C2	72.6
Nc1nc(Cl)nc2c1ncn2[C@@H]1O[C@H](CO)[C@@H](O)[C@@H]1F	84
O=C(Oc1cccc2cccnc12)c1ccccc1	102
O=c1c(O)c(-c2ccc(O)cc2O)oc2cc(O)cc(O)c12	66.9
O=P(O)(O)C(O)(Cn1ccnc1)P(=O)(O)O	130
Cc1c(C)c2c(c(C)c1O)CC[C@@](C)(CCC[C@H](C)CCC[C@H](C)CCCC(C)C)O2	100
N#Cc1ccc2c(c1)N(CCCN1CCC(O)CC1)c1ccccc1S2	87.2
Cc1cc(C)c(/C=C2\C(=O)Nc3ccccc32)[nH]1	69.7
